test system: Klebsiella aerogenes DSM 30053; test: growth (OD595) fold change vs plate DMSO controls (fold change (ratio)); higher = more growth; details: incubation time: 27 h, anaerobic, 37 °C
Where a name gives a salt, the structure may show the parent alone.
assay_endpoint: growth

// solved cases for growth follow
compound: CCN1CCC[C@H]1CNC(=O)c1c(OC)ccc(Br)c1OC [Remoxipride hydrochloride] (20 µM)
growth: 0.988
--
compound: CC(C)CN(C[C@@H](O)[C@H](Cc1ccccc1)NC(=O)O[C@H]1CCOC1)S(=O)(=O)c1ccc(N)cc1 [Amprenavir] (20 µM)
growth: 0.974
--
compound: CC[N+](C)(C)Cc1ccccc1Br [Bretylium tosylate] (20 µM)
growth: 1.06

Provide one value: measured growth of NC[C@H]1O[C@H](O[C@H]2[C@H](O)[C@@H](O[C@H]3O[C@H](CO)[C@@H](O)[C@H](N)[C@H]3O)[C@H](N)C[C@@H]2N)[C@H](N)[C@@H](O)[C@@H]1O [Kanamycin B] (20 µM)
0.765

###

Please go through the items and note down their fold change of Putrescine concentration.
test system: Klebsiella aerogenes DSM 30053; test: fold change of Putrescine concentration vs plate DMSO controls (fold change (ratio)); higher = more amine produced, active = hit call of the paper (significant change in both replicates, either direction); settings: incubation time: 27 h, anaerobic, 37 °C
Counter-ions that a name gives are not always drawn.
Numbers only.

compound: Oc1c(Cl)cc(Cl)c2cccnc12 [Chloroxine] (20 µM)
fold change of Putrescine concentration: 0.981
--
compound: O=C(NCCN1CCOCC1)c1ccc(Cl)cc1 [Moclobemide] (20 µM)
fold change of Putrescine concentration: 1.01
--
compound: NC[C@H]1CC[C@H](C(=O)O)CC1 [Tranexamic acid] (20 µM)
fold change of Putrescine concentration: 1.01

Give fold change of Putrescine concentration for all compounds that follow.
1. O=C(CCCN1CCC(O)(c2ccc(Cl)cc2)CC1)c1ccc(F)cc1 [Haloperidol] (20 µM)
2. CCCCOC(=O)c1ccc(O)cc1 [Butylparaben] (20 µM)
3. Cc1ccc(/C(=C\CN2CCCC2)c2ccccn2)cc1 [Triprolidine hydrochloride] (20 µM)
4. N[C@@H](Cc1c[nH]c2ccccc12)C(=O)O [L-Tryptophan] (20 µM)
5. CN(C)C(=N)NC(=N)N [Metformin hydrochloride] (20 µM)
6. COc1cnc(NS(=O)(=O)c2ccc(N)cc2)nc1 [Sulfameter] (20 µM)
7. CCSc1ccc2c(c1)N(CCCN1CCN(C)CC1)c1ccccc1S2 [Thiethylperazine maleate] (20 µM)

[1, 0.968, 1.02, 0.995, 0.96, 0.996, 1.07]

Batch: fold change of Putrescine concentration for all items listed.
1. COc1cc2ncnc(Nc3ccc(F)c(Cl)c3)c2cc1OCCCN1CCOCC1 [Gefitinib] (20 µM)
2. Cc1onc(-c2c(Cl)cccc2Cl)c1C(=O)N[C@@H]1C(=O)N2[C@@H]1SC(C)(C)[C@@H]2C(=O)O [Dicloxacillin sodium salt hydrate] (20 µM)
3. CCOC(=O)O[C@]1(C(=O)COC(=O)CC)CC[C@H]2[C@@H]3CCC4=CC(=O)C=C[C@]4(C)[C@H]3[C@@H](O)C[C@@]21C [Prednicarbate] (20 µM)
4. Nc1ccc(S(=O)(=O)Nc2ccccn2)cc1 [Sulfapyridine] (20 µM)
5. CCCCNc1ccc(C(=O)OCCN(C)C)cc1 [Tetracaine hydrochloride] (20 µM)
6. O=C(c1ccccc1)c1ccc2n1CCC2C(=O)O (configuration not stated) [Ketorolac tromethamine] (20 µM)
7. CC(C)(C)C(=O)OCOC(=O)[C@@H]1N2C(=O)[C@@H](NC(=O)[C@H](N)c3ccccc3)[C@H]2SC1(C)C [Pivampicillin] (20 µM)

0.997
1.01
1.03
1
1.04
1.03
1
